# System: Pancreas_BxPC3
# TEST DESCRIPTION: Cell proliferation assay (ATPlite), BxPC3
# Type: cell-based
# TEST PARAMETERS: Homo sapiens, BXPC-3; TABLE C; 72 hours, 0.5% fetal bovine serum, ATP content; read-out: IC50 grading, Pancreas_BxPC3
MEASURED QUANTITY: IC50

Solved cases (9 shown):
- SAMPLE SMILES: "C#Cc1cccc(Nc2ncnc3cc(OC)c(OCCCCCCC(=O)NO)cc23)c1"
  MEASUREMENT: "< 100 nM"
- SAMPLE SMILES: "C#Cc1cccc(Nc2ncnc3cc(OC)c(NC(=O)CCCCCCC(=O)NO)cc23)c1"
  MEASUREMENT: "1000 to 10000 nM"
- SAMPLE SMILES: "COc1cc2ncnc(Nc3ccc(F)c(Cl)c3)c2cc1OCCOc1ccc(/C=C/C(=O)NO)cc1"
  MEASUREMENT: "1000 to 10000 nM"
- SAMPLE SMILES: "COc1cc2ncnc(Nc3ccc(F)c(Cl)c3)c2cc1NC(=O)CCCCCCC(=O)NO"
  MEASUREMENT: "1000 to 10000 nM"
- SAMPLE SMILES: "O=C(CCCCCCOc1ccc2ncnc(Nc3ccc(F)c(Cl)c3)c2c1)NO"
  MEASUREMENT: "100 to 1000 nM"
- SAMPLE SMILES: "COc1cc2ncnc(NCc3ccccc3)c2cc1OCCCCCCC(=O)NO"
  MEASUREMENT: "100 to 1000 nM"
- SAMPLE SMILES: "COCCOc1cc2ncnc(Nc3ccc(F)c(Cl)c3)c2cc1NC(=O)CCCCCCC(=O)NO"
  MEASUREMENT: "1000 to 10000 nM"
- SAMPLE SMILES: "COc1cc2ncnc(N[C@H](C)c3ccccc3)c2cc1OCCCCCCC(=O)NO"
  MEASUREMENT: "1000 to 10000 nM"
- SAMPLE SMILES: "COc1cc2ncnc(Nc3ccc(F)c(Cl)c3)c2cc1OCCCCCCC(=O)NO"
  MEASUREMENT: "100 to 1000 nM"

Please turn your attention to the following entry.
Exam item: What measured IC50 goes with COc1cc2ncnc(N[C@H](C)c3ccccc3)c2cc1OCCCCCC(=O)NO ?
Marked response: 1000 to 10000 nM

====

Recorded pIC50 values for a group of molecules are listed next.
# Test system: Pancreas_CFPAC
# TEST DESCRIPTION: Cell proliferation assay (ATPlite), CFPAC
# Format: cell-based
# TEST PARAMETERS: TABLE C; 72 hours, 0.5% fetal bovine serum, ATP content; read-out: IC50 grading, Pancreas_CFPAC
pIC50: −log10 of the molar value.

Solved cases (6 shown):
- SAMPLE SMILES: "C#Cc1cccc(Nc2ncnc3cc(OC)c(OCCCCCCC(=O)NO)cc23)c1"
  pIC50: "6.00 to 7.00"
- SAMPLE SMILES: "COc1cc2ncnc(Nc3ccc(F)c(Cl)c3)c2cc1NC(=O)CCCCCCC(=O)NO"
  pIC50: "5.00 to 6.00"
- SAMPLE SMILES: "COCCOc1cc2ncnc(Nc3ccc(F)c(Cl)c3)c2cc1NC(=O)CCCCCCC(=O)NO"
  pIC50: "5.00 to 6.00"
- SAMPLE SMILES: "O=C(CCCCCCOc1ccc2ncnc(Nc3ccc(F)c(Cl)c3)c2c1)NO"
  pIC50: "6.00 to 7.00"
- SAMPLE SMILES: "COc1cc2ncnc(N[C@H](C)c3ccccc3)c2cc1OCCCCCCC(=O)NO"
  pIC50: "5.00 to 6.00"
- SAMPLE SMILES: "COc1cc2ncnc(Nc3ccc(F)c(Cl)c3)c2cc1OCCOc1ccc(/C=C/C(=O)NO)cc1"
  pIC50: "< 5.00"

Exam item: What measured pIC50 goes with COc1cc2ncnc(NCc3ccccc3)c2cc1OCCCCCCC(=O)NO ?
Marked response: 5.00 to 6.00

Exam item: Also COc1cc2ncnc(N[C@H](C)c3ccccc3)c2cc1OCCCCCC(=O)NO ?
Marked response: 5.00 to 6.00
